tested on: U251 CNS; assay: NCI-60 one-dose screen, 48 h; conditions: 10 µM unless noted
About 83,000 compounds went through this panel and 20% of them were active in at least one assay; those are over-represented in the sample as a whole. Calls of active or inactive are those of the source. The calls were made as follows: active = growth percent below 10; inactive = the rest.
Possible outcomes: y (active), n (inactive)

{"columns": ["Compound", "Group Label"],
 "data": [
  ["COC(=O)CCCCCCCCC1(C)C=CC(C(C)O)=CC1 (stereo not given)", "n"],
  ["O=S(=O)(NCCCNc1nccc(-c2c(-c3ccc(F)c(O)c3)nc3sccn23)n1)c1ccc(F)cc1", "y"],
  ["O=C1Nc2c(ccc(Cl)c2Cl)/C1=C/c1ccc(F)cc1", "n"],
  ["c1ccc(-c2nn(-c3ccccc3)[n+](-c3ccccc3-c3ccccc3)n2)cc1", "n"],
  ["NS(=O)(=O)c1cccc(NC(=O)C(=O)C2C(=O)Nc3ccccc32)c1 (stereo not given)", "n"],
  ["CC(=O)c1c(-c2ccc(OC(F)(F)F)cc2)nc2ccccn12", "n"],
  ["O=C1Nc2ccccc2/C1=N/c1nc(-c2ccc(Cl)cc2)cs1", "n"],
  ["COc1c(Cl)cc(Cl)c2ccc(C=C3C(=O)N(C)C(=O)N(C)C3=O)nc12", "n"],
  ["COc1ccc(Nn2c(SCC(=O)Nc3nc(-c4ccc(Cl)cc4)cs3)nc(C)c2C)cc1", "n"],
  ["COc1ccc(-c2cnc(N)nc2-c2ccc(OC)cc2O)cc1", "n"]
]}

* * *

test system: CCRF-CEM leukemia; assay: NCI-60 one-dose screen, 48 h; conditions: 10 µM unless noted
The panel holds about 83,000 compounds, 20% with a hit somewhere; the sample as a whole holds those more often. Active and inactive are the calls of the source. Rule for the calls: active = growth percent below 10; inactive = the rest.
Labels: 1 for active, 0 for inactive

{"columns": ["Compound", "Group Label"],
 "data": [
  ["CC1(C)CN(c2cnc(C(=O)Nc3cc(F)cc4cccnc34)cn2)CCN1", 0],
  ["CC[C@@]12C=CCN3CC[C@]4(c5cc(NC(=O)COc6cc(OCC(=O)Nc7cc8c(cc7OC)N(C)[C@H]7[C@@](O)(C(=O)OC)[C@H](OC(C)=O)[C@]9(CC)C=CCN%10CC[C@]87[C@@H]%109)cc7oc(-c8ccccc8)cc(=O)c67)c(OC)cc5N(C)[C@@H]4[C@](O)(C(=O)OC)[C@H]1OC(C)=O)[C@H]32", 0],
  ["Cc1[nH]n(C(=O)c2ccncc2)c(=O)c1N=Nc1ccc(F)c(Cl)c1", 0],
  ["CC(C)NC(=O)N1C(=O)CCC1NNC(=O)c1ccc([N+](=O)[O-])cc1 (stereo not drawn)", 0],
  ["COc1cccc(CNCCN2C(=O)c3ccc4c5c(ccc(c35)C2=O)C(=O)N(CCNCc2cccc(OC)c2)C4=O)c1", 1],
  ["CC(N)C(=O)NNc1n[nH]c(=S)n1N (stereo not drawn)", 0],
  ["CN1CCN(CC#CCNC(=O)[C@]23CCC(C)(C)C[C@H]2C2=CC[C@@H]4[C@@]5(C)Cc6c([nH]c7ccccc67)C(C)(C)[C@@H]5CC[C@@]4(C)[C@]2(C)CC3)CC1", 0],
  ["O=C1Nc2c(ccc(Cl)c2Cl)/C1=C/c1ccc([N+](=O)[O-])cc1", 1],
  ["Nc1c(C(=O)Nc2cccc3ccncc23)sc2nc3c(cc12)C(=O)CCC3", 0],
  ["Cc1ccc(O)c(C(=O)O)c1", 0],
  ["CN1CCN(c2ccc(NC3=C(Cl)C(=O)c4ncccc4C3=O)cc2C#N)CC1", 1],
  ["NC(=O)c1cccc(-c2ccccc2N2CCCCC2)c1", 0],
  ["O=C(/C=C/c1ccc[nH]1)c1ccc(-n2ccc(C(F)(F)F)n2)cc1", 0],
  ["NC(=O)c1cccc(-n2ccc3cc(NC(=O)Nc4cc(C(F)(F)F)cc(C(F)(F)F)c4)ccc32)n1", 0],
  ["COc1ccccc1Nc1cc(O)c2c(=O)cc(-c3ccccc3)oc2c1", 1],
  ["CCCCCCCCCCCCCCCCCCOc1ccccc1N", 0],
  ["COc1ccc(C(=O)/C=C/c2cn(Cc3ccc(Cl)cc3)c3ccccc23)cc1", 0],
  ["O=C(CCN1CCCC1)Nc1ccc2c(Nc3ccccc3)c3ccccc3nc2c1", 1]
]}
